- PROTOCOL SUMMARY: protein stability index of a GFP-peptide fusion (GPS, HEK-293T) (PSI 1-6); higher = more stable;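 note: 24-mer peptide tiles fused after GFP, lentivirally expressed, FACS-sorted into six equal bins by GFP/DsRed ratio, decoded by Illumina sequencing, PSI is the read-weighted mean bin number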
- ASSAY SETUP: treatment: MLN4924 1 uM, 8 h; c terminus: a fixed tail appended
protein stability index vs 4: at or above is label 1, below is label 0.

Worked examples, 5 sequences total:
SSAAMQSSCSSTSGGGGGGGGGGG [CCDC6]; label 1
LSKSRTDYQPTQAGRLMRPSVKYL [RNF180]; label 0
HLVEETRIHVLPSLNPDGYEKAYE [CPXM2]; label 1
YKPVVLLQGLSLIVTWFMLLYAQG [SLC19A2]; label 0
LERQLQAEFIESGQYRANEGTSSI [TAF7L]; label 1

Read the next record carefully.
Exercise: Assess whether reported protein stability index for QYLMATFVHVYITSFIRGPNPSKV [CDS1] sits at 4 or higher.
Solution: label 0

----------
- PROTOCOL SUMMARY: protein stability index of a GFP-peptide fusion (GPS, HEK-293T) (PSI 1-6); higher = more stable
- ASSAY SETUP: treatment: DMSO; c terminus: a fixed tail appended
Catalogue of protein stability index values

Below, each entry is followed by its recorded protein stability index result.
SGVDECARQEGLTFFGTELAPVRQ [PBXIP1]; 4.13
QKQLEQTLQQFNIKLRPPGAEKPS [ARFIP2]; 3.92

Exercise: For the sequence shown here, GENSDGCYEHFAELDIPQSVQQNG [CLPTM1] , give the reported protein stability index.
Solution: 5

Exercise: For the sequence shown here, NVLSDLYAMGITECDNMLMLLSVS [SEPHS2] , give the reported protein stability index.
Solution: 2.93

Exercise: For the sequence shown here, QRQQLPVTFGNKQKVLGKALSLIR [BTBD1] , give the reported protein stability index.
Solution: 2.81

Exercise: For the sequence shown here, DVKVGGSKYGIINLQSLKTPTLKV [DCAF4] , give the reported protein stability index.
Solution: 2.62

Exercise: For the sequence shown here, ARIQTLEPDNWMKEVMLFGHGTRK [RSAD1] , give the reported protein stability index.
Solution: 3

----------
- PROTOCOL SUMMARY: protein stability index of a GFP-peptide fusion (GPS, HEK-293T) (PSI 1-6); higher = more stable
- ASSAY SETUP: treatment: MLN4924 1 uM, 8 h; c terminus: a fixed tail appended
Catalogue of protein stability index values
Keep it simple and answer with nothing but the number.

Below, each entry is followed by its recorded protein stability index result.
HTLILMFIWFVCSLVYYGLTLSAG [SLC22A15]; 2.16
DPEDFEDAWKRPDALPGQSKRLAV [TLE6]; 4.83
LHRLFREKSLDQLKSISAEEILTL [PHTF1]; 2.25
HEEERINIYCLNCEVPTCSLCKVF [TRIM55]; 3.16
PEADCIPKEQLSTSFQWVTKWVDY [PLK2]; 2.8

Exercise: For the sequence shown here, VIDILPNCVSSVYLYYDPDYSFLS [ATE1] , give the reported protein stability index.
Solution: 3.1

Exercise: For the sequence shown here, LRTSNGQPVKTAGEITQHNVTELL [DNAAF3] , give the reported protein stability index.
Solution: 4.33

Exercise: For the sequence shown here, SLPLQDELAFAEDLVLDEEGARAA [ESRRA] , give the reported protein stability index.
Solution: 4.31

Exercise: For the sequence shown here, KTSLWEEENALWEEERAFWMENNG [CCDC70] , give the reported protein stability index.
Solution: 3.94

Exercise: For the sequence shown here, SGLRGGILIELAMRGRIYLEPPTM [GOLPH3L] , give the reported protein stability index.
Solution: 2.74

Exercise: For the sequence shown here, HVHCFTCAACKTPIRNRAFYMEEG [PDLIM7] , give the reported protein stability index.
Solution: 2.47

Exercise: For the sequence shown here, KGNTALHDCAESGSLDIMKMLLMY [FEM1C] , give the reported protein stability index.
Solution: 1.96

Exercise: For the sequence shown here, HQLYTSSSHHSHSYIGLPYADHNY [KMT2E] , give the reported protein stability index.
Solution: 2.53

Exercise: For the sequence shown here, MLQEQLDAINEEIRMIQEEKESTE [PPFIA4] , give the reported protein stability index.
Solution: 4.84
